Measured values drawn from paper PMC5520944 for this set.

System: L929sAhFas
Test: cells
Parameters: high-content necroptosis screen, percentage PI-positive nuclei as percent of DMSO plus stimulus control
Conditions: mTNF-induced cell death, validation screen; read-out: Validation screen IC50 (µM) (TNF)
Structures can show the parent of a compound that is named as a salt.
Please provide measured log10 IC50 for the entries that follow.
Each number you see is log10 of IC50, and the unit inside the log is µM.

What value of log10 IC50 has been recorded for this entry: N#C/C(=C\c1ccc(O)c(O)c1)C(=O)NCc1ccccc1 [AG-490]
1.94

Follow-up item: CNC(=O)c1cc(Oc2ccc(NC(=O)Nc3ccc(Cl)c(C(F)(F)F)c3)cc2)ccn1 [Sorafenib tosylate]
0.51

Try this compound next: CN(C)c1ccc(/C=C2\C(=O)Nc3ccccc32)cc1 [SU 4312]
1.42

Same question, COc1cc2ncc(-c3ccccc3)nc2cc1OC [AG-1296] this time
1.52

What do we get for CC(C)(C)c1cc(C=C(C#N)C#N)cc(C(C)(C)C)c1O [TYRPHOSTIN 9] ?
0.65

How about N#C/C(=C\c1ccc(O)c(O)c1)C(=O)Nc1ccccc1 [AG-494] ?
1.51

###

Please respond with reported activity at 10 µM for every item in the list.
Test system: L929sAhFas
Test: cells
Set-up: high-content necroptosis screen, percentage PI-positive nuclei as percent of DMSO plus stimulus control
Conditions: read-out: cell death TNF/Taki (POC)
Counter-ions that a name gives are not always drawn.
Express the result in % but write the number alone.

Quick check: activity at 10 µM of C=CC(=O)c1ccc2ccccc2c1 [ZM 449829] ?
99.6

Now consider C[C@@H](N)[C@H]1CC[C@H](C(=O)Nc2ccncc2)CC1 [Y-27632·2HCl] and answer again.
98.6

What about this compound? Cc1ccc(NC(=O)c2cccc(N(C)C)c2)cc1NC(=O)c1ccc(O)cc1 [ZM 336372]
99.4

Moving on to the next compound: Cc1cc2ncc(-c3ccccc3)nc2cc1C [TYRPHOSTIN AG 1295]
100

Field entry: C#Cc1cccc(Nc2ncnc3cc(OC)c(OC)cc23)c1 [BML-265]
99.6

What would you report for CC(C)(C)c1cc(C=C(C#N)C#N)cc(C(C)(C)C)c1O [TYRPHOSTIN 9] ?
95.8

Please answer likewise for O=C1Nc2ccccc2/C1=C1/Nc2ccccc2C1=O [Indirubin]
99.1

How about Cn1cnc(N)c2ncnc1-2 [3-Methyladenine] ?
102

Likewise for O=C1Cc2c([nH]c3ccc(Br)cc23)-c2ccccc2N1 [Kenpaullone] ?
99.9

Item: CNC(=O)c1cc(Oc2ccc(NC(=O)Nc3ccc(Cl)c(C(F)(F)F)c3)cc2)ccn1 [Sorafenib tosylate]
11.8

Now consider COc1cc2ncnc(Nc3cccc(Cl)c3)c2cc1OC [TYRPHOSTIN AG 1478] .
98.7

Same lookup for N#CC(=Cc1ccc2[nH]ccc2c1)C(N)=C(C#N)C#N [AG-370] , please.
99.7

Now the compound N#CC(C#N)=Cc1ccc([N+](=O)[O-])c(O)c1 [AG-126]
99.4

// repeat for CC1=C(O)C(=O)[C@@H]2O[C@@H]2C1=O [Terreic acid] and report
99.1

Let us now turn to Oc1ccc(-c2nc(-c3ccc(F)cc3)c(-c3ccncc3)[nH]2)cc1 [SB-202190]
96.3

What about this compound? CC(C)(C)n1nc(-c2ccc(Cl)cc2)c2c(N)ncnc21 [PP2]
100

Also, CC(C)c1cc(/C=C(\C#N)C(=O)NCCCc2ccccc2)cc(C(C)C)c1O [SU1498] please.
99.2

Ok, now N#C/C(=C\c1ccc(O)c(O)c1)C(=O)Nc1ccccc1 [AG-494]
95.8

One more compound: N#CC(C#N)=C(N)/C(C#N)=C/c1cc(O)c(O)c(O)c1 [TYRPHOSTIN 51]
101

Let us now turn to N#CC(C#N)=C(N)/C(C#N)=C/c1ccc(O)cc1 [Tyrphostin AG112]
98.7
